Read-out: Alkaline Phosphatase, Placental (ALPP) gene, ALPP (gene 250)
Assay: LTEA_HepaRG_ALPP: Life Technologies and Expression Analysis (LTEA) Assay for Alkaline Phosphatase, Placental (ALPP) gene using HepaRG (AID 2283468)
Details: mRNA level, 48 h; actives raise or lower the signal
Calls of active or inactive are those of the source. How the source made its calls: active means hit-call score of the fitted dose curve at least 0.9, where 1 is the maximum; inactive means score below 0.9.
Entry note: the call must match one of 1 (yes) for active, 0 (no) for inactive

Here's what some known entries look like.
Query block: Status in this test for "CCCCCOC(=O)COc1cc(N2C(=O)C3=C(CCCC3)C2=O)c(F)cc1Cl" ?
Result block: 0 (no)

Query block: # fetch the recorded call for CCOC(=O)C(C)Oc1ccc(Oc2cnc3cc(Cl)ccc3n2)cc1 (stereo not given) here
Result block: 0 (no)

Query block: Please let me know the test result on file for "CCOC(=O)c1ccc(O)cc1" .
Result block: 0 (no)

More entries:
Query block: # outcome recorded in this test, key = "CCCCOCCOCCOCc1cc2c(cc1CCC)OCO2"
Result block: 0 (no)

###

Target: human Thyroid Receptor alpha (THRa1), THRA (gene 7067) (UniProt P10827)
Sequence (P10827 whole entry, looked up): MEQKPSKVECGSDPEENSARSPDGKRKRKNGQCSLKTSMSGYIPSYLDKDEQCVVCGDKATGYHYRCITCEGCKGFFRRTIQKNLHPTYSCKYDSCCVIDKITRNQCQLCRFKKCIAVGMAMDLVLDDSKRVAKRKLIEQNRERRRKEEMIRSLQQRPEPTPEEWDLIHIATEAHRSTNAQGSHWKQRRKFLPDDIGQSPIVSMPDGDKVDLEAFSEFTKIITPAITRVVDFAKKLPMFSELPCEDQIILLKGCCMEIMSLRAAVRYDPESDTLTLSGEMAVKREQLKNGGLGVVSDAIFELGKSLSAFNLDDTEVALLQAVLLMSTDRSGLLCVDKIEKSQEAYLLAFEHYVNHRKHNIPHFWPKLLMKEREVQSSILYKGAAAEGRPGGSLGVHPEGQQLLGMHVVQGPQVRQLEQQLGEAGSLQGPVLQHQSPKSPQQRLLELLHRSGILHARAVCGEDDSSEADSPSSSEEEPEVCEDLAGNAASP
Experiment: ATG_THRa1_TRANS: Attagene TRANS-FACTORIAL HepG2 Assay for human Thyroid Receptor alpha (THRa1) (AID 2283014)
Records with an inconclusive call do not appear. The source made the active and inactive calls. The calls were made as follows: active = hit-call score of the fitted dose curve at least 0.9, where 1 is the maximum; inconclusive = response in the unintended direction; inactive = score below 0.9.
Field 'call' accepts y (active), n (inactive)

Worked examples, 3 molecules total:
Query block: Per the records of this test, what outcome belongs to "Oc1ccc(C(c2ccc(O)cc2)C(Cl)(Cl)Cl)cc1" ?
Result block: n

Query block: Could you kindly confirm the outcome this assay logged for "CC(C)(C)[C@@H](O)[C@@H](Cc1ccc(Cl)cc1)n1cncn1" ?
Result block: n

Query block: Write down the call the test reported for this molecule. Item: "CCCN(CCC)c1c([N+](=O)[O-])cc(C(F)(F)F)c(N)c1[N+](=O)[O-]"
Result block: n

Others:
Query block: Status in this test for "N#CSCSc1nc2ccccc2s1" ?
Result block: n

Query block: # fetch the recorded call for "CCCCOC(=O)[C@@H](C)Oc1ccc(Oc2ccc(C(F)(F)F)cn2)cc1" here
Result block: n

Query block: Called result for "O=C(c1ccc(O)cc1O)c1ccc(O)cc1O"
Result block: n

Query block: What outcome does the record of this test show for "CSC(=O)c1cccc2nnsc12" ?
Result block: n

Query block: How did this test come out for "COC(=O)c1cccc(C)c1S(=O)(=O)NC(=O)Nc1nc(OCC(F)(F)F)nc(N(C)C)n1" ?
Result block: n

###

Read-out: Paternally Expressed 10 (PEG10), PEG10 (gene 23089)
Assay: LTEA_HepaRG_PEG10: Life Technologies and Expression Analysis (LTEA) Assay for Paternally Expressed 10 (PEG10) using HepaRG (AID 2283520)
Conditions: mRNA level, 48 h; actives raise or lower the signal
The source made the active and inactive calls. How the source made its calls: active means hit-call score of the fitted dose curve at least 0.9, where 1 is the maximum; inactive means score below 0.9.
Would you mind answering with one of these outcomes? Yes = active, No = inactive

Query block: Fill in: this test's call for "OB(O)O" is ___
Result block: No

Here's the next entry for you.
Query block: Dear all, I need the recorded test outcome for "C#CCOC(=O)[C@@H](C)Oc1ccc(Oc2ncc(Cl)cc2F)cc1" , thank you.
Result block: No

###

Read-out: Paternally Expressed 10 (PEG10), PEG10 (gene 23089)
Experiment: LTEA_HepaRG_PEG10: Life Technologies and Expression Analysis (LTEA) Assay for Paternally Expressed 10 (PEG10) using HepaRG (AID 2283520)
Details: mRNA level, 48 h; actives raise or lower the signal
Calls of active or inactive are those of the source. Rule for the calls: active = hit-call score of the fitted dose curve at least 0.9, where 1 is the maximum; inactive = score below 0.9.
Can you answer with just one of these options? active, inactive

Please review the following examples before continuing.
Query block: Recorded test outcome, item "N#CSCSc1nc2ccccc2s1"
Result block: active

Query block: # outcome recorded in this test, key = "O=C(c1ccccc1)C1CCCCC1"
Result block: inactive

Query block: Assay outcome for "CCCCOC(=O)[C@@H](C)Oc1ccc(Oc2ccc(C(F)(F)F)cn2)cc1" : what was it?
Result block: active

Query block: What outcome does the record of this test show for "CC(C)(C)[C@@H](O)[C@@H](Cc1ccc(Cl)cc1)n1cncn1" ?
Result block: inactive

Query block: What is the recorded call for this compound in the test? "COC(=O)c1ccccc1C(=O)O"
Result block: inactive

---
Query block: For "C#C[C@]1(O)CC[C@H]2[C@@H]3CCC4=CC(=O)CC[C@@H]4[C@H]3CC[C@@]21CC" , which call appears in the assay record?
Result block: active

Query block: Answer briefly: the call reported for "CCCCCOC(=O)COc1cc(N2C(=O)C3=C(CCCC3)C2=O)c(F)cc1Cl" in this assay.
Result block: inactive

Query block: # lookup: test call for "O=C(Nc1ccc([N+](=O)[O-])cc1Cl)c1cc(Cl)ccc1O"
Result block: active

Query block: Which result was noted for this compound in the test: "CCCOC(=O)NCCCN(C)C"
Result block: inactive
